- Target Under Test: Bromodomain-containing protein 9 (Homo sapiens) (UniProt Q9H8M2)
- Sequence (whole entry): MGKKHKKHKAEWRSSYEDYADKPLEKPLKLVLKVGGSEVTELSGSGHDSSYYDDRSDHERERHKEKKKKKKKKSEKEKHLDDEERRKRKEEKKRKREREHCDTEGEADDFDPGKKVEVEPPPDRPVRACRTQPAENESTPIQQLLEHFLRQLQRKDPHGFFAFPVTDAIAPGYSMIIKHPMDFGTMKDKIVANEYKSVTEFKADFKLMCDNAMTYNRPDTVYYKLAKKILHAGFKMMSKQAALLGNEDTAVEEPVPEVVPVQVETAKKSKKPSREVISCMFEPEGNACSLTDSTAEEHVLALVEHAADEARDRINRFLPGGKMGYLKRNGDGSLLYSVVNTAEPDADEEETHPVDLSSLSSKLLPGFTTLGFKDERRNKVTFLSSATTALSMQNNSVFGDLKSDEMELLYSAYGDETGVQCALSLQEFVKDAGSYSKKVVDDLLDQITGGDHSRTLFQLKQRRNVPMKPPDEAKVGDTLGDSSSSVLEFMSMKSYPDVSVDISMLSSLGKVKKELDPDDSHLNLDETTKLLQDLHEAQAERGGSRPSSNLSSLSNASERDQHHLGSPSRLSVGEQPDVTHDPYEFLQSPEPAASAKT
- Experiment: Binding affinity to human recombinant biotinylated BRD9 assessed as retention volume at 4 uM by FAC-MS analysis
Each entry below carries its recorded Activity.
# output: bare number, implied unit µL

Some compounds with recorded Activity:
| Molecular String | Activity [µL] |
| --- | --- |
| CCOC(=O)N(c1cc(-c2cc(N)c3nnc(C)n3n2)ccc1C)S(=O)(=O)c1ccc(Cl)cc1 | 947 |
| Cc1ccc(-c2cc(N)c3nnc(C)n3n2)cc1NS(=O)(=O)c1ccc(Cl)c(Cl)c1 | 1170 |
| Cc1ccc(-c2cc(N)c3nnc(C)n3n2)cc1NS(=O)(=O)c1ccccc1Cl | 784 |
| FC(F)(F)c1nnc2ccc(-c3ccccc3)nn12 | 212 |

Moving on to the next compound.
Query (compound): `COc1ccc(-c2ccc3nnc(C(F)(F)F)n3n2)cc1` ; field requested: Activity
270
